# Test system: SNB-75 CNS
# assayNotes: NCI tumour cell line growth inhibition, 48 h; in the data active means GI50 below about 0.43 µM; inactive means the rest
Write down the outcome that applies. Available outcomes: y for active, n for inactive

Hi, do you know how COc1ccc2ncn(-c3cc(O[C@H](C)c4ccccc4Cl)c(C(N)=O)s3)c2c1 came out in this test?
y

Called result for COc1cc2c3c(n(CCCN(C)C)c(=O)c2cc1OC)-c1ccccc1C3=O
n

Which outcome did this test record for the compound C=CC1CC1(CO)COc1cc(Cl)nc(N)n1 (centres undefined) ?
n

Recorded test outcome, item Cc1cc(C2CC(O)C(CO)O2)cc2c(=O)[nH]c(N)nc12 (centres undefined)
n

* * *

# Tested on: SF-539 CNS
# assayNotes: NCI tumour cell line growth inhibition, 48 h; in the data active = GI50 below about 0.43 µM; inactive = the rest
Respond using exactly one of the listed classes: YES for active, NO for inactive

N.N.N.N.[Cl-].[Co+3].[N-]=[N+]=[N-].[N-]=[N+]=[N-] : NO
O=C(CSC(c1ccccc1)c1ccccc1)N/N=C/c1ccc(Cl)cc1Cl : NO
COCCOc1cnc2ccn([C@H](C)c3nnc4c(F)cc(-c5cnn(C)c5)cn34)c(=O)c2c1 : NO

Outcome? O=C(Nc1ccc(-c2ccccc2)cc1)C1CCN(S(=O)(=O)c2ccccc2Cl)CC1
NO

Dear colleague, could you share the recorded outcome for COc1ccc(-c2oc3cc(O)c(OC)c(O)c3c(=O)c2OC)cc1O when you have a moment?
YES

Test call, this compound: COc1ccc(-c2ccc(/C=N/n3c(C)n[nH]c3=S)o2)c([N+](=O)[O-])c1
NO

State the result this test recorded for Cc1cc(I)cc(CN(C)CCCN2CCOCC2)c1O .
NO

Short answer needed: outcome of this test for COc1ccc2c(c1)C(C)Cc1c(ncnc1-n1c(C)nc3ccccc31)N2C (stereo not given) ?
NO

Hey, what did the test say about CN(CCCNC(=O)Cc1ccc2ccc3cccc4ccc1c2c34)CCCNc1cc(-c2ccc3ccccc3c2)nc2ccccc12 ?
NO

In this assay, the call recorded for N#C/C(=C/N1CCN(C(=O)c2ccco2)C1=S)C(=O)c1ccccc1 was what?
NO

* * *

# Test system: SNB-75 CNS
# assayNotes: NCI tumour cell line growth inhibition, 48 h; in the data active = GI50 below about 0.43 µM; inactive = the rest
Select the matching outcome among active, inactive

O=C(Nc1ccc(-c2ccccc2)cc1)C1CCN(S(=O)(=O)c2ccccc2Cl)CC1 : inactive
CCOC(=O)CNC(=O)c1ccccc1Nc1ccnc(C(F)(F)F)c1 : inactive
O=C(Nc1ccc(-n2cc(-c3ccncc3)c(-c3ccc(Cl)c(O)c3)n2)cc1)Nc1ccc(Cl)c(C(F)(F)F)c1 : active
COc1cc2ncn(-c3cc(OCCc4ccccc4)c(C(N)=O)s3)c2cc1OC : inactive

Hi, sorry to bother you, what did the test record for O=C(Nc1ccc(Br)cc1)c1ccc(Cl)c(Cl)c1 ?
inactive

* * *

Reported GI50 values are given for each entry in this list.
# Tested on: NCI-H226 lung
# assayNotes: NCI tumour cell line growth inhibition, 48 h

COCCOc1cnc2ccn([C@H](C)c3nnc4c(F)cc(-c5cnn(C)c5)cn34)c(=O)c2c1 : > 100 µM

Given the entry CCOC(=O)CNC(=O)c1ccccc1Nc1ccnc(C(F)(F)F)c1 , what GI50 was observed with NCI-H226 lung?
> 100 µM

Which GI50 is reported with NCI-H226 lung for this entry: COc1ccc2ncn(-c3cc(O[C@H](C)c4ccccc4Cl)c(C(N)=O)s3)c2c1 ?
0.6 µM

API: value(readout=GI50, system=NCI-H226 lung) for record O=[N+]([O-])c1ccc2c(c1)C(c1ccccc1Cl)=Nc1cn[nH]c1N2
11.8 µM

Fill in the recorded GI50 for this molecule, with NCI-H226 lung as test system: Cc1cc(S(=O)(=O)N/N=C(\Sc2cc(Cl)c(C)cc2S(N)(=O)=O)c2ccc(Cl)cc2)c(Cl)cc1Cl
58.3 µM

I'm curious: which GI50 was measured for COc1ccc(Nc2c3ccccc3nc3occ(Cl)c23)cc1 tested on NCI-H226 lung?
25.1 µM

Please state recorded GI50 (tested on NCI-H226 lung) of CC(=O)O[C@H](C[C@H](C(C)C)N(C)C(=O)[C@@H](NC(=O)[C@H]1CCCCN1C)C(C)C)c1nc(C(=O)N[C@@H](Cc2ccccc2)C[C@H](C)C(=O)O)c(CCOCc2ccccc2)s1
< 0.001 µM

API: value(readout=GI50, system=NCI-H226 lung) for record NC(N)=NCCCCCNc1noc(Cc2c[nH]c3cc(Br)ccc23)n1
13.6 µM

Record lookup: for NCI-H226 lung, what GI50 belongs to O=C(Nc1ccc(-c2ccccc2)cc1)C1CCN(S(=O)(=O)c2ccccc2Cl)CC1 ?
30.2 µM

Give GI50 (NCI-H226 lung) of the following molecule: O=C(COc1ccc(/C=C2\CSc3ccccc3C2=O)cc1)Nc1nccs1
15.6 µM

* * *

# System: PC-3 prostate
# assayNotes: NCI tumour cell line growth inhibition, 48 h
Here the recorded TGI is given for each entry.

Solved cases (8 shown):
COCCOc1cnc2ccn([C@H](C)c3nnc4c(F)cc(-c5cnn(C)c5)cn34)c(=O)c2c1 : > 100 µM
O=C(Nc1ccc(CO)cc1)c1coc2ccccc2c1=O : > 100 µM
OCC1OC(n2cnc3c(Cl)nc(Nc4ccccc4)nc32)CC1O (centres undefined) : > 100 µM
CC(C)S(=O)(=O)c1ccccc1Nc1nc(Nc2cccc(NC(=O)CN)c2)ncc1Cl : 5.9 µM
O=C(OCC1OC2OC(c3ccccc3)(n3ccc4c([N+](=O)[O-])ccnc43)OC2C1OC(=O)c1ccccc1)c1ccccc1 (centres undefined) : > 100 µM
C=CCCC(=O)CC(O)(C(F)(F)F)C(F)(F)F : > 100 µM
NC(=O)NNC(=O)c1nc[nH]c1[N+](=O)[O-] : > 100 µM
COC(=O)[C@H](Cc1ccccc1)NC(=O)[C@H](Cc1ccccc1)NC(=O)[C@@H]1CCCN1C(=O)N[C@H]1C2C=CC(C2)C1C(=O)N1CCC[C@H]1C(=O)N[C@@H](C)C(=O)N[C@H](C(=O)OC)C(C)C (some centres undefined) : > 100 µM

Would you kindly look at the next entry?
Dear colleague, I am looking for the recorded TGI of the following compound: C/C=C/C(O)P1(=O)N(Cc2ccccc2)[C@@H]2CCCC[C@H]2N1Cc1ccccc1 (some centres undefined)
> 25 µM

* * *

# Tested on: LXFL 529 NSCLC
# assayNotes: NCI tumour cell line growth inhibition, 48 h
endpointName: TGI

Example entries and their recorded answers appear below.
COC(=O)CCC(=O)CC1CC(=O)C2CCCN12 (centres undefined) : > 100 µM
O=C1c2ccccc2C(=O)N1Cc1ccccc1-c1c2nc(c(-c3ccccc3CN3C(=O)c4ccccc4C3=O)c3ccc([nH]3)c(-c3ccccc3CN3C(=O)c4ccccc4C3=O)c3nc(c(-c4ccccc4CN4C(=O)c5ccccc5C4=O)c4ccc1[nH]4)C=C3)C=C2 : > 100 µM
Nc1nc(CCl)nc(Nc2ccccc2)n1 : 28.9 µM
Nc1ccn(C2(CO)C=C(CO)C(O)C2O)c(=O)n1 (centres undefined) : > 25.8 µM
CC(=O)Nc1cc2c(s1)CCC1CC(=O)NN=C21 (centres undefined) : > 100 µM

Item under review: COc1ccc(O)cc1 . Reported TGI?
> 100 µM

Would you mind telling me what TGI value was observed for COC(=O)OCC1OC(N2C(=O)NC(=O)C(Br)C2N=[N+]=[N-])CC1OC(=O)OC (centres undefined) ?
> 100 µM

* * *

# System: SK-MEL-5 melanoma
# assayNotes: NCI tumour cell line growth inhibition, 48 h
Known TGI of a selection of compounds
Note: unit µM is implicit; provide only the numeric part.

Cc1ccc2c(c1)[nH]c1cc(C(F)(F)F)ccc1[p+]2=O (stereo not given) : 34
C=C1C(=O)CC2C(=O)C(C)(O)CC/C=C(\C)C(=O)CC12 (stereo not given) : 35.6
O=C1Nc2c(ccc(Cl)c2I)C1=O : 29.5
NC1=NS(=O)(=O)Nc2nc(-c3ccc([N+](=O)[O-])o3)[nH]c21 : 33.4

Consider now this further compound.
So what does the record say about TGI for Cc1ccc(/C(O)=C/C(=O)C(=O)/C=C(\O)c2ccc(C)cc2C)c(C)c1 ?
3.26

* * *

# Tested on: OVCAR-8 ovarian
# assayNotes: NCI tumour cell line growth inhibition, 48 h
# GI50 per entry

Example cases with answers are listed next.
CCOC(=O)CNC(=O)c1ccccc1Nc1ccnc(C(F)(F)F)c1 : > 50.8 µM
COc1ccc2c(c1)C(C)Cc1c(ncnc1-n1c(C)nc3ccccc31)N2C (configuration not stated) : 4.83 µM
Cc1cn2c(/C=C3\C(=O)N(C)c4ccc(O)cc43)c(C)nc2s1 : 11.3 µM
CCc1ccccc1NC(=O)c1sc2nc3c(cc2c1N)C(=O)CCC3 : 2.88 µM
C1C[OH+]CCNCC[OH+]CC[OH+]CCN1.[Cl-].[Pt+4] : > 100 µM

Please examine the following record next.
# get_value(readout='GI50', item= CCC(C)(C)c1ccc(OCCCCCCN2CCNCC2)cc1 )
2.45 µM
